Just for reference, the supplement of paper PMC11451515 is where these values come from.

Here the recorded cell viability is given for each entry.
system: NOMO1; experiment: cell viability relative to DMSO control; higher = less cytotoxic; details: RPMI 5 mM glucose + 10% FBS; 48 h; 15.4 µM
Unit % implied. Number only.

Compound | Measurement units | cell viability
CC\1=C(C(=O)N(\C=C1)C2=CC=C(C=C2)C3=NC=CO3)/C4=CC5=CN=C(N)N=C5C=C4 | % | 113
COC[C@@H](NC(C)=O)C(=O)NCc1ccccc1 | % | 112
OC(=O)\C1=C\N(C2=CC=C(F)C=C2)C3=C(C=C(F)C(=C3)N4CCNCC4)C1=O | % | 98.4
C\C1=C\N([C@H]2C[C@H](N=[N+]=[N-])[C@@H](CO)O2)C(=O)NC1=O | % | 14.3

Attention now turns to another entry.
Name the reported cell viability value associated with the compound `NC(CO)(CO)CCc1ccc(Sc2cccc(OCc3ccccc3)c2)cc1Cl`
40.1

###

test system: P12-Ichikawa; experiment: cell viability relative to DMSO control; higher = less cytotoxic; conditions: HPLM + 10% dialyzed FBS; 48 h; 0.569 µM
Reported cell viability by item:
The reply should contain only the number, in %.

Item CC1(C)OC2CC3C4CC(F)C/5=C/C(=O)/C=C\C5(C)C4C(O)CC3(C)[C@@]2(O1)C(=O)CO (some centres not stated) has what recorded cell viability?
78

###

tested on: P12-Ichikawa; experiment: cell viability relative to DMSO control; higher = less cytotoxic; settings: RPMI 5 mM glucose + 10% dialyzed FBS; 48 h; 0.569 µM
Metric name: cell viability (%)
Record the value in %, omitting the unit from your answer.

Completed entries (count: 2):
Compound | Metric name | Observed measurement
c1cc(CN2CCCNCCNCCCNCC2)ccc1CN1CCCNCCNCCCNCC1 | cell viability | 101
COc1cc(O)c2c(c1)C1OC1C[C@H](O)[C@H](O)C(=O)/C=C\C[C@H](C)OC2=O (stereo not given in full) | cell viability | 124

Data request, read-out cell viability, for `CC(C)(C)C(=O)Oc1ccc([S+](=O)([O-])Nc2ccccc2C(=O)NCC(=O)O)cc1`
120

Fill in: cell viability of C1CCC(C(CC2CCCCN2)C2CCCCC2)CC1 (stereo not given) is ___
122

Need cell viability, item `CN(C)CCc1c[nH]c2ccc(C[C@H]3COC(=O)N3)cc12`
104

###

test system: SEM cells; assay: cell viability relative to DMSO control; higher = less cytotoxic; conditions: RPMI 5 mM glucose + 10% FBS; 48 h; 15.4 µM
Metric name: cell viability (%)
Provide the reading as a plain figure in %.

Structure smiles | Measurement units | Observed measurement
CC[C@H]1/C=C\C=C/C[C@@H](C)[C@H](O)[C@@](C)(O)C(=O)[C@@H](C)[C@H](O)[C@@H](C)C(=O)[C@@H](C)[C@H](O)[C@@H](C)/C=C/C(=O)O[C@@H]2[C@H](C)[C@H](CC1)O[C@]1(CC[C@H](C)[C@H](C[C@@H](C)O)O1)[C@H]2C | % | 34.6

Give cell viability (SEM cells) of the following molecule: `CC1=CC=CC=C1CN2C(=O)C/3=C(/CCN(CC4=CC=CC=C4)C3)N\5CC\N=C25`
13.2

Missing value: cell viability, SEM cells, entry `C\C1=C\C(=O)C2=C(C=CC=C2)C1=O` . Fill in?
95.9

Give SEM cells cell viability for `CC(=O)Nc1ccc([C@H](C)C(=O)Nc2ncc(C(C)C)s2)cc1`
8.73

Param readout= cell viability; system= SEM cells; entry= `CC1=C(C=CC=C1)N2\C(=N/C3=C(C(=CC=C3)C)C2=O)C[N]4N=CC5=C4N=CN=C5N` ; returns value.
131

Checklist item: cell viability tested on SEM cells, entry `CC(C)(C)c1cc(C=C(C#N)C#N)cc(Br)c1O` , value?
77.7

Entry `Oc1ccc(/C=C/c2cc(O)cc(O)c2)cc1` , system SEM cells: what cell viability was measured?
22.7

Quick check: cell viability on SEM cells, item `Cn1c(Nc2ccc(C(F)(F)F)cc2)nc2cc(Oc3ccnc(-c4nc(C(F)(F)F)c[nH]4)c3)ccc21` ?
44.2
